Data credit: the supplement of paper PMC11451515

# Tested on: NOMO1
# PROTOCOL DESCRIPTION: cell viability relative to DMSO control; higher = less cytotoxic
# TEST CONTEXT: RPMI 5 mM glucose + 10% FBS; 48 h; 0.00702 µM
Listed compounds paired with reported cell viability
PROPERTY NAME: cell viability (%)

test_smiles=N[S+](=O)([O-])c1ccc(Nc2nc(OCC3CCCCC3)c3[nH]cnc3n2)cc1 measured=109
test_smiles=CNC(=O)c1ccc2c(c1)NC(=O)/C2=C(\Nc1cccc(CN(C)C)c1)c1ccccc1 measured=93.6
test_smiles=CN(C)c1nc(Cc2ccc(NC(=O)c3ccc(C(F)(F)F)cc3)cc2)nc(N(C)C)c1CC(=O)O measured=87.1
test_smiles=CC(C)(N)c1ccc(-c2nc3ccccc3nc2-c2ccccc2)cc1 measured=112

* * *

# Tested on: NOMO1
# PROTOCOL DESCRIPTION: cell viability relative to DMSO control; higher = less cytotoxic
# TEST CONTEXT: RPMI 5 mM glucose + 10% dialyzed FBS; 48 h; 0.000781 µM
Listed compounds paired with reported cell viability
PROPERTY NAME: cell viability (%)

compound=C[C@]12CC[C@H]3[C@@H](CC(=C)\C4=C\C(=O)\C=C/[C@]34C)[C@@H]1CCC2=O system_tested=NOMO1 property_name="cell viability" output_unit=% measured=75.8
compound=O=C(O)c1ccc(O)c2ncc(N3CCOCC3)cc12 system_tested=NOMO1 property_name="cell viability" output_unit=% measured=98.1
compound=OC1=CC=C(C=C1)C/2=C/C3=C(OC2)C=C(O)C=C3 system_tested=NOMO1 property_name="cell viability" output_unit=% measured=108
compound=C[S+](=O)([O-])Oc1ccc2c(NC(N)=O)c(C(=O)c3ccc(Cl)cc3Cl)oc2c1 system_tested=NOMO1 property_name="cell viability" output_unit=% measured=127
compound=CC[C@H]1OC(=O)[C@H](C)[C@@H](O[C@H]2C[C@@](C)(OC)[C@@H](O)[C@H](C)O2)[C@H](C)[C@@H](O[C@@H]2O[C@H](C)C[C@H](N(C)C)[C@H]2O)[C@](C)(OC)C[C@@H](C)C(=O)[C@H](C)[C@@H](O)[C@]1(C)O system_tested=NOMO1 property_name="cell viability" output_unit=% measured=86.3
compound="Cc1c(N)nc([C@H](CC(N)=O)NC[C@@H](N)C(N)=O)nc1C(=O)N[C@H](C(=O)N[C@@H](C)[C@H](O)[C@@H](C)C(=O)N[C@@H](C(=O)NCCc1nc(-c2nc(C(=O)NCCC[S+](C)C)cs2)cs1)[C@@H](C)O)C(O[C@H]1O[C@H](CO)[C@H](O)[C@@H](O)[C@H]1O[C@H]1O[C@H](CO)[C@@H](O)[C@H](OC(N)=O)[C@@H]1O)c1c[nH]cn1 (stereo partly drawn)" system_tested=NOMO1 property_name="cell viability" output_unit=% measured=119
compound=O=C(c1cncc(Br)c1)N1CCC(N2CCCC2)CC1 system_tested=NOMO1 property_name="cell viability" output_unit=% measured=112
compound=COc1cc(C(=O)NC2CCN(C)CC2)ccc1Nc1ncc2c(n1)N(C1CCCC1)CCC(=O)N2C(C)C system_tested=NOMO1 property_name="cell viability" output_unit=% measured=92.7
compound=Clc2cccc(Cl)c2\N=C1/NCCN1 system_tested=NOMO1 property_name="cell viability" output_unit=% measured=105
compound=Cc1ccc(C(=O)Nc2cccc(C(F)(F)F)c2)cc1Nc1nc(-c2cccnc2)nc2c1cnn2C system_tested=NOMO1 property_name="cell viability" output_unit=% measured=84.8
compound="NC1=NC(=O)N2CC12 (stereo not drawn)" system_tested=NOMO1 property_name="cell viability" output_unit=% measured=88.3
compound=CNc1nc(-c2ccc3c(N)n[nH]c3c2)cc(N2C[C@@H](C(=O)NC3CCCCC3)CC[C@H]2C)n1 system_tested=NOMO1 property_name="cell viability" output_unit=% measured=75.9
compound=COc1ccccc1[C@H](c1cccc2ccccc12)[C@@](C)(C#N)C(=O)N1CCC(c2cccc(C(F)(F)F)c2)CC1 system_tested=NOMO1 property_name="cell viability" output_unit=% measured=100
compound=C[C@H](NC(=O)Cc1cc(F)cc(F)c1)C(=O)N[C@H](C(=O)OC(C)(C)C)c1ccccc1 system_tested=NOMO1 property_name="cell viability" output_unit=% measured=95.3
compound=C=CC(=O)Nc1cc2c(Nc3ccc(F)c(Cl)c3)ncnc2cc1C#CC(C)(C)N1CCN(C)CC1 system_tested=NOMO1 property_name="cell viability" output_unit=% measured=99.2
compound=OC(=O)\C1=C\N(C2CC2)C3=CC(=C(F)C=C3C1=O)N4CCNCC4 system_tested=NOMO1 property_name="cell viability" output_unit=% measured=112
compound="CN(C)CCCC1(c2ccc(F)cc2)OCc2cc(C#N)ccc21 (stereo not drawn)" system_tested=NOMO1 property_name="cell viability" output_unit=% measured=87.5
compound=CNC(=O)c1ccc2c(c1)NC(=O)/C2=C(\Nc1cccc(CN(C)C)c1)c1ccccc1 system_tested=NOMO1 property_name="cell viability" output_unit=% measured=74.6

* * *

Listed compounds paired with reported cell viability
# Test system: SEM cells
# PROTOCOL DESCRIPTION: cell viability relative to DMSO control; higher = less cytotoxic
# TEST CONTEXT: RPMI 5 mM glucose + 10% dialyzed FBS; 48 h; 1.71 µM
PROPERTY NAME: cell viability (%)

compound=CCc1ccc(OCc2ccccc2C(=O)Nc2ccc3nc(C)cc(N)c3c2)cc1 measured=102
compound=CC1(COc2ccc3c(c2)ncn3-c2ccc3cccc(N4CCC(N)CC4)c3n2)COC1 measured=48.2
compound=COc1c(Cl)cc2c([nH]c3cnccc32)c1NC(=O)c1cccnc1C measured=125
compound=CC(=O)SC[C@@H](C)C(=O)N1CCC[C@H]1C(=O)N[C@@H](Cc1ccccc1)C(=O)O measured=101
compound="C[C@]12CCC3c4ccc(O)cc4CCC3C1CCC2=O (some centres undefined)" measured=82.8
compound=Cc1cc(Nc2cc(N3CCN(C)CC3)nc(/C=C/c3ccccc3)n2)n[nH]1 measured=6.13
compound="CN(CCOc1ccc(CC2SC(=O)NC2=O)cc1)c1ccccn1 (centres undefined)" measured=106
compound=CC/C=C\C[C@H]1C(=O)CC[C@@H]1CC(=O)OC measured=120
compound=Nc1n[nH]c2nnc(-c3c(-c4ccccc4)nn4ccccc34)cc12 measured=123

* * *

# Test system: P12-Ichikawa
# PROTOCOL DESCRIPTION: cell viability relative to DMSO control; higher = less cytotoxic
# TEST CONTEXT: HPLM + 10% dialyzed FBS; 48 h; 0.00234 µM
Listed compounds paired with reported cell viability
PROPERTY NAME: cell viability (%)

test_smiles=CCCCCNC(=N)N/N=C/c1c[nH]c2ccc(OC)cc12 measured=119
test_smiles=CN(C)c1nc(Cc2ccc(NC(=O)c3ccc(C(F)(F)F)cc3)cc2)nc(N(C)C)c1CC(=O)O measured=100
test_smiles=COc1c(Cl)cc2c([nH]c3cnccc32)c1NC(=O)c1cccnc1C measured=99.3
test_smiles=COc1cc2c(cc1OC)[C@@H]1Cc3ccc(OC)c(OC)c3CN1CC2 measured=114
test_smiles=OC[C@H]1O[C@H](C[C@@H]1O)N2/C=C(C(=O)NC2=O)/C(F)(F)F measured=116
test_smiles=C=CC(=O)Nc1cc2c(Nc3ccc(F)c(Cl)c3)ncnc2cc1C#CC(C)(C)N1CCN(C)CC1 measured=108
test_smiles=CN(C)C/C=C/C(=O)Nc1ccc(C(=O)Nc2cccc(Nc3ncc(Cl)c(-c4c[nH]c5ccccc45)n3)c2)cc1 measured=85.6
test_smiles=CC(C)(N)c1ccc(-c2nc3ccccc3nc2-c2ccccc2)cc1 measured=114
test_smiles=Cc1ccc2nc(NCCN)c3ncc(C)n3c2c1 measured=105

* * *

# Test system: P12-Ichikawa
# PROTOCOL DESCRIPTION: cell viability relative to DMSO control; higher = less cytotoxic
# TEST CONTEXT: RPMI 5 mM glucose + 10% FBS; 48 h; 0.19 µM
Listed molecules paired with reported cell viability
PROPERTY NAME: cell viability (%)

molecule=CN1C(=O)/C(=C(NC2=CC=C(I)C=C2F)\C3=C1\N=C/N(C[C@@H](O)CO)C3=O)F property_name="cell viability" measured=71.3
molecule="Cc1c(N)nc([C@H](CC(N)=O)NC[C@@H](N)C(N)=O)nc1C(=O)N[C@H](C(=O)N[C@@H](C)[C@H](O)[C@@H](C)C(=O)N[C@@H](C(=O)NCCc1nc(-c2nc(C(=O)NCCC[S+](C)C)cs2)cs1)[C@@H](C)O)C(O[C@H]1O[C@H](CO)[C@H](O)[C@@H](O)[C@H]1O[C@H]1O[C@H](CO)[C@@H](O)[C@H](OC(N)=O)[C@@H]1O)c1c[nH]cn1 (some centres not stated)" property_name="cell viability" measured=109
molecule="NC1=NC(=O)N2CC12 (configuration not stated)" property_name="cell viability" measured=97.4
molecule=Nc1n[nH]c2nnc(-c3c(-c4ccccc4)nn4ccccc34)cc12 property_name="cell viability" measured=119
molecule="CCC(CCCC)COC(=O)C(\\C#N)=C(\\c1ccccc1)c2ccccc2 (configuration not stated)" property_name="cell viability" measured=104
molecule=CCCOc1ccc(C(=O)OCCN(CC)CC)cc1N property_name="cell viability" measured=128
molecule=C=CC(=O)Nc1cc2c(Nc3ccc(F)c(Cl)c3)ncnc2cc1C#CC(C)(C)N1CCN(C)CC1 property_name="cell viability" measured=106
molecule=O=C(O)c1ccc(O)c2ncc(N3CCOCC3)cc12 property_name="cell viability" measured=97.6
molecule=O=C(c1cncc(Br)c1)N1CCC(N2CCCC2)CC1 property_name="cell viability" measured=96.7
molecule="C[C@]12CCC3c4ccc(O)cc4CCC3C1CCC2=O (some centres not stated)" property_name="cell viability" measured=100
molecule=CCCN[C@H]1CCc2nc(N)sc2C1 property_name="cell viability" measured=110
molecule=Clc2cccc(Cl)c2\N=C1/NCCN1 property_name="cell viability" measured=130
molecule=Cc1ccc2nc(NCCN)c3ncc(C)n3c2c1 property_name="cell viability" measured=108
molecule=CN(C)c1nc(Cc2ccc(NC(=O)c3ccc(C(F)(F)F)cc3)cc2)nc(N(C)C)c1CC(=O)O property_name="cell viability" measured=103
molecule=CC1(C)CC\C2=C(/O1)C3=C(C=CC=C3)C(=O)C2=O property_name="cell viability" measured=109
molecule=OC[C@H]1O[C@H](C[C@@H]1O)N2/C=C(C(=O)NC2=O)/C(F)(F)F property_name="cell viability" measured=121
molecule=CCCCc1ccc2[nH]c(NC(=O)OC)nc2c1 property_name="cell viability" measured=17.6
